Reported values of GI50 for individual entries
- Test system: MDA-MB-231
- method notes: NCI tumour cell line growth inhibition, 48 h
The source made the active and inactive calls. Cut-off read from the data, not from the text of the source: active = GI50 up to about 1.1 µM and inactive = higher.
endpoint label: GI50

COc1ccc(/C=C2\N=C3NC(=O)C(N4CCCCC4)=C(N)N3C2=O)cc1
> 100 µM (inactive)
C=CC(=O)NC(O)(C(=O)OCC)C(F)(F)F (stereo not given)
> 100 µM (inactive)
COc1ccccc1C(=O)NCC1CCCN2CCCCC12 (stereo not given)
> 100 µM (inactive)
CCOC(=O)c1sc2c(c1OC(=O)c1cccs1)c(=O)n(-c1ccccc1)c(=S)n2-c1ccccc1
14.9 µM (inactive)
CCOC(=O)CCc1ccc(NC(=O)/C=C/c2ccc([N+](=O)[O-])o2)cc1
1.8 µM (inactive)

----------
- System: CAKI-1
- method notes: NCI tumour cell line growth inhibition, 48 h
Activity calls are given as the source filed them. Rule as the data show it: active = GI50 up to about 1.1 µM and inactive = higher.
endpoint label: GI50

Cc1nc2ccc(S(=O)(=O)Nc3ccccc3Cl)cc2c(=O)n1NC(=O)CNc1ccccc1Cl
> 100 µM (inactive)
C=C(C)C1CC=C(C)C(O)([C@@]2(O)C[C@H](C(=C)C)CC=C2C)C1 (stereo partly specified)
13.5 µM (inactive)
COc1ccc(Cc2nccc3cc(OC)c(OC)cc23)cc1
33 µM (inactive)
COc1cc(Cc2cc3c(c(C(=O)O)c2Br)OCO3)cc(OC)c1OC
> 100 µM (inactive)
N#C[C@H](C(=O)c1ccccc1F)c1nc2ccccc2[nH]1
> 100 µM (inactive)
O=C(O)c1ccc(NS(=O)(=O)Cc2ccccc2)cc1
> 100 µM (inactive)
COC(=O)C(Cc1nc2ccc(Cl)cc2nc1O)C(=O)C(=O)Nc1cc(C)ccc1C (stereo unspecified)
> 100 µM (inactive)
Nc1ccc(-c2nc3ccc(Cc4ccc5nc(-c6ccc(N)cc6)oc5c4)cc3o2)cc1
> 100 µM (inactive)
O=c1n(N=[S+]([O-])(c2ccccc2)c2ccccc2)c(=O)n2n1C1C=CC2CC1
> 100 µM (inactive)
C(=N/Nc1ccccn1)/c1cccnc1
> 100 µM (inactive)
[N-]=[N+]=Nc1c(Cc2ccccc2)c(=O)oc2ccccc12
23.8 µM (inactive)

----------
Reported values of GI50 for individual entries
- Tested on: HOP-62
- method notes: NCI tumour cell line growth inhibition, 48 h
Active and inactive are the calls of the source. No stated cut-off is given here; in the data, active = GI50 up to about 1.1 µM and inactive = higher.
endpoint label: GI50

COC(=O)c1ccc(CCc2cc(O)ccc2O)cc1
12.2 µM (inactive)
NNC(=O)/C(=C/c1ccc(Cl)cc1Cl)NC(=O)c1ccccc1
> 100 µM (inactive)
O=c1oc2cc(O)ccc2c(O)c1C(c1ccccc1F)c1c(O)c2ccc(O)cc2oc1=O
> 100 µM (inactive)
CCOC(=O)c1cc2c(cn1)[nH]c1cccc(N)c12
> 100 µM (inactive)
CSCCC(C(=O)O)N(CC1(O)OCC(O)C(O)C1O)N=O (configuration not stated)
> 100 µM (inactive)
COc1cc(/C=C\c2ccc(OC(C)=O)cc2)cc(OC)c1OC
5.32 µM (inactive)
Cc1ccc(NC(=S)NNC(=O)c2cc(-c3ccccc3)nc3ccccc23)cc1C
22 µM (inactive)
COC(=O)C(=O)c1cc2ccccc2n1S(=O)(=O)c1ccccc1
> 100 µM (inactive)
O=C(CSc1nc2ccc(I)cc2c(=O)n1Cc1ccccc1)NN1C(=O)CCC1=O
54.5 µM (inactive)
CC(C(=O)n1c2ccccc2c2ccccc21)N(c1ccccc1)c1ccccc1 (configuration not stated)
16.3 µM (inactive)
CCOC(=O)C1=c2[nH]c3cccc4cccc(c43)n2C=C(C(C)=O)C1CC(C)=O (configuration not stated)
68.7 µM (inactive)
CCOC(=O)c1cc2cc(Cc3ccc4[nH]c(C(=O)OCC)cc4c3)ccc2[nH]1
5.14 µM (inactive)
[O-][Cl+3]([O-])([O-])[O-].c1ccc(-c2csc3c4ccccc4c4ccccc4[n+]23)cc1
7.1 µM (inactive)
O=C1c2ccccc2C(=O)c2cc3c(cc21)C[S+]([O-])C3
> 100 µM (inactive)
CCOC(=O)CCC(NC(=O)c1ccc(CNc2nc3cc(N)cc(N)c3nc2-c2ccccc2)cc1)C(=O)OCC (configuration not stated)
> 100 µM (inactive)
CCC(=O)N/S(=N/S(=O)(=O)c1ccccc1)C(Cl)(Cl)Cl (configuration not stated)
> 100 µM (inactive)
Cc1[nH]c2ncn(/N=C/c3ccccc3O)c(=N)c2c1Cc1ccccc1
> 100 µM (inactive)
O=c1ncccn1[C@@H]1O[C@H](CO)[C@H](O)C1O (some centres not stated)
68.2 µM (inactive)
Cc1c(C(=O)C(=O)c2ccccc2)c(C)c(C(=O)C(=O)c2ccccc2)c(C)c1C(=O)C(=O)c1ccccc1
> 100 µM (inactive)
CCSCC(=O)N1CCc2c([nH]c3ccccc23)C1=O
> 100 µM (inactive)
Cc1nnc(Nc2ccc(Cl)cc2)o1
> 10 µM (inactive)
COC(=O)C1Cc2ccc3c(c2C1=O)CCCC3 (configuration not stated)
89.7 µM (inactive)
CC(Oc1cc2oc(=O)cc(-c3ccccc3)c2cc1Cl)C(=O)O (configuration not stated)
> 100 µM (inactive)
CCCCN(CCCC)CC(C(=O)Nc1ccccc1)/C(C)=N\NC(=O)c1ccncc1 (configuration not stated)
> 100 µM (inactive)
CCC[C@@H](O)C[C@@H]1CCC[C@H](C[C@@H](O)CC)N1C
> 100 µM (inactive)
Cc1nn(-c2ccccc2)c2nc3ccc(Cl)cc3c(-c3ccccc3)c12
> 100 µM (inactive)
C/C(=C/CNc1ncnc2c1ncn2CCC(=O)O)CO
> 100 µM (inactive)

----------
- System: LOX IMVI
- method notes: NCI tumour cell line growth inhibition, 48 h
Activity calls are given as the source filed them. No stated cut-off is given here; in the data, active = GI50 up to about 1.1 µM and inactive = higher.
Labels: T for active, F for inactive

CC1=NN=C(NCCN(C)C)C/C1=C/c1ccccc1Cl
F
COC1CC(OC)C2OC(c3ccccc3)OCC2O1 (stereo not given)
F
CC(=O)N/C(=C\c1ccc(Cc2nc3c([nH]2)C(=O)c2ccccc2C3=O)cc1)c1nc2c([nH]1)C(=O)c1ccccc1C2=O
F
CC1NOC(=O)C1/N=N/c1cccc(Cl)c1 (stereo not given)
F
CCOC(=O)CCc1ccc(NC(=O)/C=C/c2ccc([N+](=O)[O-])o2)cc1
T
COC(=O)c1c(OC)cc2cc3c(c(O)c2c1C)C(=O)C1(O)C(=O)C=C(OC)C(OC(=O)CC(C)N)=C1C3=O (stereo not given)
F
COC(=O)c1cc(C)ccc1C1CN=NC12Cc1c(C)cc(C)cc1C2=O (stereo not given)
F
COC(=O)CSc1cc(Cl)c(C)cc1S(=O)(=O)Nc1n[nH]c(N)n1
F
C=CCNc1nc2c(s1)C(=O)c1ccccc1C2=O
F
CCC1(OC(=O)CN)C(=O)OCc2c1cc1n(c2=O)Cc2cc3ccccc3nc2-1 (stereo not given)
T

----------
- Tested on: DLD-1
- method notes: NCI tumour cell line growth inhibition, 48 h
Calls of active or inactive are those of the source. Rule as the data show it: active = GI50 up to about 1.1 µM and inactive = higher.
Labels: active, inactive

CC1=NN=C(NCCN(C)C)C/C1=C/c1ccccc1Cl
inactive
C=CCOC(C)n1c(C)cc(=O)n(C(C)OCC=C)c1=O (centres undefined)
inactive
O=C(O)C12C=CC(C1)c1ccccc12 (centres undefined)
inactive
C=CCC1=C2CCCCC2CCC1=O (centres undefined)
inactive
CC12CCCCC1C(=O)C2(Cl)Cl (centres undefined)
inactive
CC(C)(C)C(=O)OCC1C(=O)OCC1C(=O)N1Cc2cc3ccccc3nc2C1 (centres undefined)
inactive
CCCCCCCC(=O)NCC(O)CNC(=O)CCCCCCC
inactive
O=C1c2ccccc2C(=O)c2cc3c(cc21)C[S+]([O-])C3
inactive
COc1ccccc1C(N)c1ccccc1 (centres undefined)
inactive
CC(Oc1cc2oc(=O)cc(-c3ccccc3)c2cc1Cl)C(=O)O (centres undefined)
inactive
CC(C)OP(=O)(OC(C)C)c1nn(-c2ccc([N+](=O)[O-])cc2)c(=N)s1
inactive
Cc1ccc(C)c(N2C(=O)C(=O)C(c3nc4ccccc4o3)/C(=N/N)C2=O)c1 (centres undefined)
inactive
COC(=O)C(CC(C)=O)CS(=O)(=O)CC(=O)C(=O)Nc1cccc([N+](=O)[O-])c1 (centres undefined)
inactive
CN1C(c2ccccc2)CS(=O)(=O)CS1(=O)=O (centres undefined)
inactive
COC1=CC(=O)c2ccc(C(C)C)cc2C1(C)C1=NC(C)(C)CO1 (centres undefined)
inactive
CC1=CC2=C(OCO1)C(=O)c1ccccc1C2=O
inactive
Cc1cc2c(cc1C)[n+]([O-])c(-c1c(Cl)cccc1Cl)c(N)[n+]2[O-]
inactive
CCOC(=O)c1cc2c(cn1)[nH]c1cccc(N)c12
inactive
O=C(O)CCC(O)=C1S(=O)(=O)OCCOS1(=O)=O
inactive
CC(=O)[C@H]1CCC2[C@@H]3CC=C4C(O)C(OS(=O)(=O)O)CC[C@]4(C)C3CC[C@@]21C (some centres undefined)
inactive
Nc1nc(N)c(N=O)c(Nc2ccc(Br)cc2)n1
inactive
Cc1cccc2c(O)cc(=O)oc12
inactive
O=C1C(CO)=C(CO)C(=O)c2c(O)ccc(O)c21
active
OCCN(CCO)c1cccc(N(CCO)CCO)n1
inactive
